target: human GlyT1c transporter (Homo sapiens); construct: expressed in transfected cells; host or cells: CHO cells (recombinant; line hGlyT1c_5_CHO is named for the uptake assay); test: Radioligand binding assay using recombinant CHO cell membranes expressing human GlyT1; settings: radioligand binding to human GlyT1c transporter-expressing membranes
Sequence (P48067 whole entry): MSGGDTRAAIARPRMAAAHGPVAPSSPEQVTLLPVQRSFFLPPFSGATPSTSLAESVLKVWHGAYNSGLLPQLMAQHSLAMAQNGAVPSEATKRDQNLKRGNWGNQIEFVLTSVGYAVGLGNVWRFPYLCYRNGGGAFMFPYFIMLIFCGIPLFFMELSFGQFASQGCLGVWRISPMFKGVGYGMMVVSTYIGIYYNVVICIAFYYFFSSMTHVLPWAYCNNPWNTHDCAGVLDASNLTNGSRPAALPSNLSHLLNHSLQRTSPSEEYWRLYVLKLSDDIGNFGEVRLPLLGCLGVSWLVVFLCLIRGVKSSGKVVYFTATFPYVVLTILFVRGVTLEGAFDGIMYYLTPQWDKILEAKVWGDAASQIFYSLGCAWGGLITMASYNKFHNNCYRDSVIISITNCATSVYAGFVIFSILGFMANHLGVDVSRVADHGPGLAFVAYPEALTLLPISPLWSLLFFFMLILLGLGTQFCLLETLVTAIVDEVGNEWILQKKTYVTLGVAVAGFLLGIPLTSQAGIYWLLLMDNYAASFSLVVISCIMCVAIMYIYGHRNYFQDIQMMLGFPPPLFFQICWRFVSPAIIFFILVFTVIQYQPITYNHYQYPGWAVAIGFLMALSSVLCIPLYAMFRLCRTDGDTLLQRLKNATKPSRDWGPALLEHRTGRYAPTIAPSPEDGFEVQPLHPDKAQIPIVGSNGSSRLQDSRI
# reported Ki; entries follow

Use these answered entries as a reference point.
O=C(N[C@@H]1CN(S(=O)(=O)CC2CC2)C[C@H]1c1ccccc1)c1ccc(C(F)(F)F)cc1 (relative stereo) :: ≤ 10000 nM
Cn1cnc(S(=O)(=O)N2C[C@@H](NCc3ccc(C(F)(F)F)cc3Cl)[C@H](c3ccccn3)C2)c1 (relative stereo) :: ≤ 10 nM
COC[C@H](C)NC[C@@H]1CN(S(=O)(=O)c2cn(C)cn2)C[C@H]1c1ccc(F)cc1 (mixture of isomers) :: ≤ 10000 nM
N#Cc1ccccc1S(=O)(=O)N1C[C@@H](N)[C@H](c2ccccc2)C1 (relative stereo) :: ≤ 10000 nM
Cn1cnc(S(=O)(=O)N2C[C@@H](Nc3cc(F)cc(Cl)c3)[C@H](c3ccc(F)cc3)C2)c1 (relative stereo) :: ≤ 1000 nM
Cn1cnc(S(=O)(=O)N2C[C@@H](CO)[C@H](c3ccc(F)cc3)C2)c1 (relative stereo) :: ≤ 10000 nM
Cn1cnc(S(=O)(=O)N2C[C@@H](Nc3cc(C(F)(F)F)ccc3F)[C@H](c3ccccc3)C2)c1 (relative stereo) :: ≤ 1000 nM
Cn1cnc(S(=O)(=O)N2C[C@H](NCCCCC3OCCC(C)(C)O3)[C@@H](c3ccc(F)cc3)C2)c1 (stereo partly drawn) :: ≤ 1000 nM
Cn1cnc(S(=O)(=O)N2C[C@@H](Oc3cc(C(F)(F)F)ccn3)[C@H](c3ccc(F)cc3)C2)c1 (relative stereo) :: ≤ 100 nM
Cc1noc(C)c1S(=O)(=O)N1CC(Nc2ccc(F)c(F)c2)C(c2ccccc2)C1 (stereo not drawn) :: > 10000 nM

Would you kindly share the measured Ki for `Cn1cnc(S(=O)(=O)N2C[C@H](Nc3cccc(OCC(F)(F)F)c3)[C@@H](c3ccccc3)C2)c1` ?
≤ 10 nM

Would you kindly share the measured Ki for Cn1cnc(S(=O)(=O)N2C[C@@H](Nc3ccc(F)c(OC(F)(F)F)c3)[C@H](c3ncccc3F)C2)c1 (relative stereo) ?
≤ 100 nM

Would you kindly share the measured Ki for `Cc1nc(N[C@H]2CN(S(=O)(=O)c3cn(C)cn3)C[C@@H]2c2ccc(F)cc2)cc(C(F)(F)F)n1` ?
≤ 1000 nM

Would you kindly share the measured Ki for Cn1cnc(S(=O)(=O)N2C[C@@H](C(=O)Nc3cccc(Cl)c3)[C@H](c3ccc(F)cc3)C2)c1 (relative stereo) ?
≤ 1000 nM

Would you kindly share the measured Ki for Cn1cnc(S(=O)(=O)N2C[C@H](NCC3CCC(C(F)(F)F)CC3)[C@@H](c3ccc(F)cc3)C2)c1 (stereo partly drawn) ?
≤ 1000 nM

Would you kindly share the measured Ki for `CC(C)c1csc(CN[C@H]2CN(S(=O)(=O)c3cn(C)cn3)C[C@@H]2c2ccccc2)n1` ?
≤ 10000 nM

Would you kindly share the measured Ki for Cn1cnc(S(=O)(=O)N2C[C@@H](C(=O)Nc3cccc(C(F)(F)F)c3)[C@H](c3ccc(F)cc3)C2)c1 (relative stereo) ?
≤ 1000 nM

Would you kindly share the measured Ki for `Cn1cnc(S(=O)(=O)N2C[C@H](NC(=O)Nc3ccccc3F)[C@@H](c3ccc(F)cc3)C2)c1` ?
≤ 10000 nM

Would you kindly share the measured Ki for O=S(=O)(c1ccc2c(c1)OCCO2)N1CC(Nc2ccc(F)c(F)c2)C(c2ccccc2)C1 (stereo not drawn) ?
≥ 10000 nM

Would you kindly share the measured Ki for Cc1oncc1S(=O)(=O)N1CC(Nc2ccc(F)c(F)c2)C(c2ccccc2)C1 (stereo not drawn) ?
≤ 10000 nM

Would you kindly share the measured Ki for `CCc1oc2ccccc2c1CN[C@H]1CN(S(=O)(=O)c2cn(C)cn2)C[C@@H]1c1ccccc1` ?
≤ 1000 nM

Would you kindly share the measured Ki for Cn1cnc(S(=O)(=O)N2C[C@@H](NC(=O)c3cccc(C(F)(F)F)c3Cl)[C@H](c3ccccc3Cl)C2)c1 (relative stereo) ?
≤ 100 nM

Would you kindly share the measured Ki for CC(C)CO[C@@H]1CN(S(=O)(=O)c2cn(C)cn2)C[C@H]1Nc1cccc(Cl)c1 (relative stereo) ?
≤ 1000 nM

Would you kindly share the measured Ki for `CCC(CC)CN[C@H]1CN(S(=O)(=O)c2cn(C)cn2)C[C@@H]1c1ccccc1` ?
≤ 1000 nM

Would you kindly share the measured Ki for Cn1cnc(S(=O)(=O)N2C[C@@H](Nc3ccc(Cl)cc3)[C@H](c3ccccc3F)C2)c1 (relative stereo) ?
≤ 1000 nM

Would you kindly share the measured Ki for `Cn1cnc(S(=O)(=O)N2C[C@H](NCc3ccc(C(F)(F)F)cc3Cl)[C@@H](c3ccccc3)C2)c1` ?
≤ 10 nM

Would you kindly share the measured Ki for `Cc1nc(N[C@H]2CN(S(=O)(=O)c3cn(C)cn3)C[C@@H]2c2ccccc2)nn1C` ?
≤ 10000 nM

Origin of the recorded values: patent EP2970215B1
